Data credit: paper PMC4802042

B1: MKP7 catalytic domain (MKP7-CD, residues 156-301) [human] / GST-JNK1 (wild type) [human] (parent complex)
chain 1: NIGPTRILPNLYLGCQRDVLNKELMQQNGIGYVLNASNTCPKPDFIPESHFLRVPVNDSFCEKILPWLDKSVDFIEKAKASNGCVLVHCLAGISRSATIAIAYIMKRMDMSLDEAYRFVKEKRPTISPNFNFLGQLLDYEKKIKNQ
chain 2: MSRSKRDNNFYSVEIGDSTFTVLKRYQNLKPIGSGAQGIVCAAYDAILERNVAIKKLSRPFQNQTHAKRAYRELVLMKCVNHKNIIGLLNVFTPQKSLEEFQDVYIVMELMDANLCQVIQMELDHERMSYLLYQMLCGIKHLHSAGIIHRDLKPSNIVVKSDCTLKILDFGLARTAGTSFMMTPYVVTRYYRAPEVILGMGYKENVDIWSVGCIMGEMIKGGVLFPGTDHIDQWNKVIEQLGTPCPEFMKKLQPTVRTYVENRPKYAGYSFEKLFPDVLFPADSEHNKLKASQARDLLSKMLVIDASKRISVDEALQHPYINVWYDPSEAEAPPPKIPDKQLDEREHTIEEWKELIYKEVMDLLE

variants of: B1; assay: GST pull-down; parent: 100; read off a plot
Exercise: state measured percent of parent for each of the variants provided.

Memo: chain 2 I197D , reported percent of parent: ~88 % of wild-type JNK1

Value of measured percent of parent for the entry chain 2 T255A : ~30 % of wild-type JNK1

Noted for chain 2 I231D : its percent of parent reads ~37 % of wild-type JNK1

// percent of parent lookup, variant = chain 2 T228A , result: ~72 % of wild-type JNK1

Value of percent of parent reported for the variant chain 2 H230D is ~96 % of wild-type JNK1

Looking up chain 2 V260D , I found its percent of parent recorded as ~8 % of wild-type JNK1

// percent of parent lookup, variant = chain 2 Q253A , result: ~92 % of wild-type JNK1

Reported percent of parent of chain 2 R263A : ~73 % of wild-type JNK1

Quick note, percent of parent for chain 2 D229A landed at ~5 % of wild-type JNK1
